Measured growth of individual entries
Test system: UO-31 renal
experimental_protocol: NCI-60 one-dose screen, 48 h (100 = growth as untreated, 0 = no growth, -100 = all killed)
stated_conditions: 10 µM unless noted
The panel holds about 83,000 compounds, 20% with a hit somewhere; the sample as a whole holds those more often.
property: growth (%)

* CN1CC[C@H](c2c(O)cc(O)c3c(=O)cc(-c4ccccc4Cl)oc23)[C@H](O)C1 | -14.1
* COc1cc(-c2cc(-c3ccc(Nc4ccnc5cc(Cl)ccc45)cc3)nc(N3CCOCC3)n2)cc(OC)c1OC | 37.5
* O=C1CC(c2cccc(F)c2)c2c(n[nH]c2-c2ccc(Cl)cc2)N1 (stereo not drawn) | 79.3
* CCOC(=O)Sc1ncnc2nc[nH]c12 | 41
* Cc1nn(-c2ccccc2)c2c1N=c1s/c(=C\c3cn(-c4ccccc4)nc3-c3ccc(Cl)cc3)c(=O)n1C(C)N2 (stereo not drawn) | 70.1
* COc1cc2c(cc1O)c(=O)n(CCN(C)C)c1c3cc4c(cc3ncc21)OCO4 | -46.8
* Nc1nc(Nc2ccccc2)c(C=Nc2ccccc2)c(=O)[nH]1 | 61
* Cc1nc(NC(=O)N2CCC[C@H]2C(N)=O)sc1-c1ccnc(C(C)(C)C(F)(F)F)c1 | 25.1

# credit: PubChem BioAssay (NCI)
